Values compiled from ChEMBL document CHEMBL1141499.

Assay: Bioavailability in Sprague-Dawley rat at 3.0 mg/kg, po
Assay type: ADME, organism-based
Details: in vivo
recorded_metric: bioavailability (%)

smiles_entry: O=C(NCc1nc2cccnc2n1C1(c2ccccc2)CC1)[C@@H](Cc1c(F)ccc(F)c1F)NC(=O)C1(C(F)(F)F)CC1
scale_unit: %
bioavailability: 85

smiles_entry: CC(C)(C)OC(=O)N[C@H](Cc1ccccc1F)C(=O)NCc1nc2cccnc2n1C1(c2ccccc2)CC1
scale_unit: %
bioavailability: 47

smiles_entry: CC(C)(C)OC(=O)N[C@H](Cc1ccccc1C(F)(F)F)C(=O)NCc1nc2cccnc2n1CC1CC1
scale_unit: %
bioavailability: 25

smiles_entry: CC(C)(C)OC(=O)N[C@H](Cc1ccccc1C(F)(F)F)C(=O)NCc1nc2cccnc2n1CC(F)(F)C(F)(F)F
scale_unit: %
bioavailability: 10

smiles_entry: C[C@H](c1ccccc1)n1c(CNC(=O)[C@@H](Cc2ccccc2C(F)(F)F)NC(=O)OC(C)(C)C)nc2cccnc21
scale_unit: %
bioavailability: 57

[I] CC(C)(C)OC(=O)N[C@H](Cc1ccccc1C(F)(F)F)C(=O)NCc1nc2cccnc2n1CC(F)(F)F
[II] C[C@@H](c1ccccc1)n1c(CNC(=O)[C@@H](Cc2ccccc2C(F)(F)F)NC(=O)OC(C)(C)C)nc2cccnc21
Hi there, can you help? I need to know whether I or II has lower measured bioavailability. Lab note: record the label of whichever item you select.
I
